System: SF-268 CNS
method_notes: NCI tumour cell line growth inhibition, 48 h
Field: TGI. Provide a value for each of the compounds that follow.

**Query** Which TGI is reported for this compound? CC1=C(SCCO)C(=O)c2ccccc2C1=O
**Result** 29.9 µM

**Query** Which TGI is reported for this compound? O=C(Nc1ccccc1)c1cc(S(=O)(=O)N2CCNC2=O)c(S)cc1Cl
**Result** > 100 µM

**Query** Which TGI is reported for this compound? COc1c(C)c(OC)c(C(=O)CC(C)C)c(OC)c1C
**Result** > 100 µM

**Query** Which TGI is reported for this compound? O=[N+]([O-])c1cccc(C2=NN(c3ccccc3)C3c4ccccc4OCC23)c1 (stereo not given)
**Result** > 100 µM

**Query** Which TGI is reported for this compound? CCOP(=O)(Nc1ccc(-c2ccc(N)cc2)cc1)OCC
**Result** > 100 µM

**Query** Which TGI is reported for this compound? O=C1CCCCN1
**Result** > 1120 µM

**Query** Which TGI is reported for this compound? CC(C)=Cc1cccc2[nH]c(O)c(N=Nc3ccc(S(N)(=O)=O)cc3)c12
**Result** > 25 µM

**Query** Which TGI is reported for this compound? CC1=C[C@H]([C@H]2C=C(C)C(C(N)=O)=CN2Cc2c(Cl)cccc2Cl)N(Cc2c(Cl)cccc2Cl)C=C1C(N)=O
**Result** > 75 µM

**Query** Which TGI is reported for this compound? CCOC(=O)c1c(-c2ccc(OC)c(O)c2)c(C#N)c(=S)n(C2OC(COC(C)=O)C(OC(C)=O)C(OC(C)=O)C2OC(C)=O)c1-c1ccccc1 (stereo not given)
**Result** > 100 µM

**Query** Which TGI is reported for this compound? Cc1c(C(=O)Nc2ccccc2)nnn1-c1ccnc2cc(C(F)(F)F)ccc12
**Result** > 100 µM

**Query** Which TGI is reported for this compound? CCc1[nH]nc(C(N)=O)c1N=NN(C)C
**Result** > 100 µM

**Query** Which TGI is reported for this compound? COc1cc(/C=C2\NC(=O)C3Cc4c(OC)c(C)c(OC)c(OC)c4C2N3C)c(OC)c(C)c1OC (stereo not given)
**Result** > 100 µM

**Query** Which TGI is reported for this compound? C[C@]12CCc3nonc3C1CC[C@@H]1C2CC[C@@]2(C)C1CC[C@@H]2O (stereo not given in full)
**Result** > 100 µM

**Query** Which TGI is reported for this compound? CC1OC(CC(=O)O)Cc2c1c(O)c1c(O)cc(-c3cc(=O)c4c(=O)c5c(c(=O)c=4c3=O)CC(CC(=O)O)OC5C)c(O)c1c2O (stereo not given)
**Result** > 100 µM

**Query** Which TGI is reported for this compound? c1cc(C2=NCCO2)c2ccsc2c1
**Result** > 100 µM

**Query** Which TGI is reported for this compound? O=C(c1ccc2ccccc2c1)c1c(C(F)(F)F)n([O-])c2cc(C(F)(F)F)ccc2[n+]1=O
**Result** 3.05 µM

**Query** Which TGI is reported for this compound? O=C1c2cn[nH]c2N=C(Nc2ccccc2)C1N=Cc1ccc([N+](=O)[O-])cc1 (stereo not given)
**Result** > 10 µM

**Query** Which TGI is reported for this compound? Cc1cc(C#N)c(Nc2ccc(F)cc2[N+](=O)[O-])s1
**Result** > 100 µM

**Query** Which TGI is reported for this compound? CCN(CC)CCCNc1n[n+]([O-])c2ccccc2[n+]1[O-]
**Result** > 100 µM

**Query** Which TGI is reported for this compound? O=C(Nc1cccc(C(F)(F)F)c1)c1ccc(NC2=C(Cl)C(=O)N(Cc3ccccc3)C2=O)cc1
**Result** 29.9 µM

---

Test system: SNB-19 CNS
method_notes: NCI tumour cell line growth inhibition, 48 h
Field: GI50. Provide a value for each of the compounds that follow.

**Query** Which GI50 is reported for this compound? CC(C)CCCCCCCCCCCCC(=O)NCC(=O)NC1C(C)OC(Nc2ncnc3nc[nH]c23)C(O)C1O (stereo not given)
**Result** 8.45 nM

**Query** Which GI50 is reported for this compound? O=C1c2cc3c(cc2-c2c1c1ccc(F)cc1c(=O)n2C[C@H](O)[C@H](O)[C@H](O)CO)OCO3
**Result** 92.7 nM

**Query** Which GI50 is reported for this compound? CC[O-].CC[O-].O=C([CH-]C(=O)c1ccccc1)CCCCCCC(=O)[CH-]C(=O)c1ccccc1.[Ti+4]
**Result** > 100000 nM

**Query** Which GI50 is reported for this compound? CCC[CH2][Sn]1([CH2]CCC)[O]CC[S]1
**Result** 446 nM

**Query** Which GI50 is reported for this compound? C#CCOC(=O)/C=C/C(=O)Oc1ccc2c(C)cc(=O)oc2c1
**Result** > 100000 nM

---

System: HOP-92 NSCLC
method_notes: NCI tumour cell line growth inhibition, 48 h
Label yes (1) for high-side TGI (at or above 40 µM) and no (0) for low-side TGI (below it).

**Query** Decide: is the reported value of TGI for O=[N+]([O-])c1cccc(C2=NN(c3ccccc3)C3c4ccccc4OCC23)c1 (stereo not given) equal to or greater than 40 µM?
**Result** yes (1)

**Query** Decide: is the reported value of TGI for CN/N=C(\C(=O)Nc1ccc(C(F)(F)F)cc1[N+](=O)[O-])C(c1cnc2ccc([N+](=O)[O-])cc2n1)[N+](=O)[O-] (stereo not given) equal to or greater than 40 µM?
**Result** yes (1)

**Query** Decide: is the reported value of TGI for CC1(O)C2(c3ccccc3)CCC[N+]1(C)CC2 (stereo not given) equal to or greater than 40 µM?
**Result** yes (1)

**Query** Decide: is the reported value of TGI for Cc1ccc2[nH]c(C(=O)NN3C(=O)C(C)SC34CCC(C)CC4)c(-c3ccccc3)c2c1 (stereo not given) equal to or greater than 40 µM?
**Result** no (0)

**Query** Decide: is the reported value of TGI for CC(=O)OCCCCN1C(=O)CSc2ccccc21 equal to or greater than 40 µM?
**Result** yes (1)

**Query** Decide: is the reported value of TGI for COc1cc2c(/C=C3/C(=O)Nc4ccc(O)cc43)c(Cl)n(Cc3cc(OC)c(OC)c(OC)c3)c2cc1C equal to or greater than 40 µM?
**Result** no (0)

**Query** Decide: is the reported value of TGI for COc1ccc(N/N=C/C2=CC(C)(C)C(C#N)(C#N)C(O)=C2C#N)cc1 equal to or greater than 40 µM?
**Result** yes (1)

**Query** Decide: is the reported value of TGI for C/C(=C\C(C[C@](C)(O)C(O)CCC#C[Si](C)(C)C)S(=O)(=O)c1ccccc1)CC/C=C/CO[Si](C)(C)C(C)(C)C (stereo not given in full) equal to or greater than 40 µM?
**Result** no (0)

**Query** Decide: is the reported value of TGI for CN(/N=C/c1ccccc1O)c1ccc2ccccc2n1 equal to or greater than 40 µM?
**Result** yes (1)

**Query** Decide: is the reported value of TGI for O=[N+]([O-])c1cc(I)cc(/C=N/NS(=O)(=O)c2ccc(Cl)cc2)c1O equal to or greater than 40 µM?
**Result** no (0)

**Query** Decide: is the reported value of TGI for O=C1/C(=C/c2ccc(F)cc2)CN(C(=O)C(Cl)Cl)C/C1=C\c1ccc(F)cc1 equal to or greater than 40 µM?
**Result** no (0)

**Query** Decide: is the reported value of TGI for O=c1oc2ccc(Cl)cc2c(=O)n1-c1ccc(F)cc1F equal to or greater than 40 µM?
**Result** no (0)

**Query** Decide: is the reported value of TGI for CC1SC2=NC3=C(c4ccccc4C3=O)C(c3ccccc3Cl)N2C1=O (stereo not given) equal to or greater than 40 µM?
**Result** yes (1)

**Query** Decide: is the reported value of TGI for Cc1nc(-n2nc(-c3ccccc3)cc2-c2ccccc2)sc1C(=O)/C=C/c1ccc([N+](=O)[O-])cc1 equal to or greater than 40 µM?
**Result** yes (1)

**Query** Decide: is the reported value of TGI for Cc1ccc(-c2nc(/C=N/Nc3cc(C)nc4ccc(Br)cc34)c(C)o2)cc1 equal to or greater than 40 µM?
**Result** no (0)

**Query** Decide: is the reported value of TGI for CCOC(=O)/C(=C\c1cn(C(C)=O)c2ccccc12)P(C)(=O)OCC (stereo not given) equal to or greater than 40 µM?
**Result** yes (1)

**Query** Decide: is the reported value of TGI for CCCCCCCC(=O)OCC1OC(n2cc(F)c(=O)[nH]c2=O)C(N)C(O)C1O (stereo not given) equal to or greater than 40 µM?
**Result** yes (1)

**Query** Decide: is the reported value of TGI for O=C1c2ccccc2C(=O)c2c1oc1c2c(=O)[nH]c2ccc(Cl)cc21 equal to or greater than 40 µM?
**Result** no (0)

**Query** Decide: is the reported value of TGI for CC(C)(C)OC(=O)N1CC(C)(C)N2C(=O)C3(CCCO3)C12 (stereo not given) equal to or greater than 40 µM?
**Result** yes (1)
